Measured on: T1, TAF1 ZnA (Homo sapiens, UniProt P21675 1234-1371)
T1 sequence: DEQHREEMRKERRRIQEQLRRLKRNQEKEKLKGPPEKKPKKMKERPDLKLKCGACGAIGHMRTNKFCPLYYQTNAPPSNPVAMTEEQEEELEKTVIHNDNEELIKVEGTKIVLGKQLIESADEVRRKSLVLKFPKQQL
Assay: BLI; 0.2 mM dI:dC, 5 mM Mg2+; BLI: 10 mM HEPES pH 7.9, 5 mM MgCl2, 100 mM NaCl, 10% glycerol, 0.1% ovalbumin, 0.2 mM dI:dC, 30 °C; EMSA: 10 mM HEPES pH 7.9, 5 mM MgCl2, 100 mM NaCl, 10% glycerol, 20 mM tetrasodium pyrophosphate (so in the source), 0.2 mM dI:dC, 25 °C
Measurement parameters: protein: recombinant; EMSA/proteolysis: tag removed by TEV; label: 5'-biotin (BLI); 5'-32P (EMSA); blunt
Property: Kd (nM)
API: value field is a number in nM; no unit string.

Reported Kd, binder CD1P (cyclin D1 core promoter) (dsDNA) DNA 1: AGGGGAGTTTTGTTGAAGTTGCAAAGTCCTGGAGCCTCCAGAGGGCTGTCG DNA 2: CGACAGCCCTCTGGAGGCTCCAGGACTTTGCAACTTCAACAAAACTCCCCT : ____ 411

For IMD (Inr, MTE, DPE of super core promoter) (dsDNA) DNA 1: GTCCTCAGTCGCGATCGAACACTCGAGCCGAGCAGACGTGCCTA DNA 2: TAGGCACGTCTGCTCGGCTCGAGTGTTCGATCGCGACTGAGGAC , what is its reported Kd? 288

Which Kd is reported for this binder? Random DNA (dsDNA) DNA 1: GAATGTCGCGAAGGCAGCGTTCGCGAAGACAGCAAAGAAG DNA 2: CTTCTTTGCTGTCTTCGCGAACGCTGCCTTCGCGACATTC 1010
